Tested on: Cancer cell lines
experiment: Inhibition of human colon cancer cells
Assay type: functional
value type: GI50 (µM)

Consider the reported GI50 for these compounds:
• N=C(N)N/N=C/c1c(-c2ccsc2)nc2sccn12 = 14.1
• Cc1nn2c(/C=N/NC(=N)N)c(-c3ccc(Cl)c([N+](=O)[O-])c3)nc2s1 = 0.646
• Cc1cn2c(/C=N/NC(=N)N)c(-c3ccsc3)nc2s1 = 5.37

1. Cc1cc(-c2nc3sc(C)cn3c2/C=N/NC(=N)N)c(C)s1
2. N=C(N)N/N=C/c1c(-c2ccsc2)nc2n1CCS2
IN: Sorting ascending by GI50, which comes first: 1 or 2 ? Give the label under which the chosen entry appears.
OUT: 1
(1: 3.72 µM, 2: 22.9 µM)

I. Cc1cc(-c2nc3sccn3c2/C=N/NC(=N)N)c(C)s1
II. COc1cc([N+](=O)[O-])c(OC)cc1-c1nc2sc(Cl)cn2c1/C=N\NC(=N)N/N=C\c1c(-c2cc(OC)c([N+](=O)[O-])cc2OC)nc2sc(Cl)cn12
III. N=C(N)N/N=C/c1c(-c2cccs2)nc2sccn12
IN: Endpoint returns the given compounds ordered by ascending GI50. Form field (ranking): labels in requested order.
OUT: II, III, I

I. COc1cc(OC)cc(-c2nc3sccn3c2/C=N/NC(=N)N)c1
II. Cc1cn2c(/C=N/Nc3ccccn3)c(-c3ccc(Cl)c([N+](=O)[O-])c3)nc2s1
IN: Sorting ascending by GI50, which comes first: I or II ? Give the label under which the chosen entry appears.
OUT: I
(I: 6.03 µM, II: 26.3 µM)

a. N=C(N)N/N=C/c1c(-c2ccc(Cl)c([N+](=O)[O-])c2)nc2sc3ccccc3n12
b. CCOC(=O)c1nc2sc(Cl)cn2c1/C=N\NC(=N)N
IN: Which is greater in GI50, the first item a or the second item b ? Give the label under which the chosen entry appears.
OUT: b
